test system: monocistronic NK5.1 HCV replicon in Huh7 cells; experiment: HCV replicon assay, monocistronic replicon cell line; assay type: cell-based, hepatitis C virus; conditions: Hepatitis C virus, Huh-7; monocistronic NK5.1 HCV replicon in Huh7 cells; median value; read-out: Mono EC50 Median
pEC50: −log10 of the molar value.
TEST READOUT: pEC50

• Cc1ccc(-c2nc(-c3ncccc3C)no2)c(O)c1 [Compound 295] = 5.68
• Brc1cccc(-c2nc(-c3ccccn3)n[nH]2)c1 [Compound 432] = 4.72
• Cc1cccnc1-c1n[nH]c(-c2cccc3ccccc23)n1 [Compound 440] = 5.25

* * *

system: monocistronic NK5.1 HCV replicon in Huh7 cells; test: HCV replicon assay, monocistronic replicon cell line; assay type: cell-based, hepatitis C virus; settings: Hepatitis C virus, Huh-7; monocistronic NK5.1 HCV replicon in Huh7 cells; median value; read-out: Mono EC50 Median
pEC50: −log10 of the molar value.
Respond with YES for pEC50 values of 5 and above, NO for values below.

• Cc1cccnc1-c1n[nH]c(-c2ccccc2O)n1 = NO
• COc1ccc(-c2nc(-c3cnccc3C(F)(F)F)n[nH]2)c(O)c1 = NO
• CC(=O)Nc1ccc(O)c(-c2nc(-c3ncccc3C)no2)c1 = NO
• COc1ccccc1-c1nnc(-c2ccccc2)o1 = NO
• Brc1ccccc1-c1nc(-c2ccccn2)n[nH]1 = NO
• CC(=O)Nc1ccc(-c2nc(-c3ncccc3C)no2)c(O)c1 = YES
• Cc1ccccc1-c1nnc(-c2ccccc2F)o1 = NO
• CC(C)(C)c1ccc(O)c(-c2nc(-c3nccc4ccccc34)n[nH]2)c1 = NO
• Nc1ccc(-c2noc(-c3cc(Br)ccc3O)n2)nc1 = NO
• Oc1ccc2ccccc2c1-c1nc(-c2nccc3ccccc23)n[nH]1 = NO
• Cc1cccc(-c2n[nH]c(-c3c(F)cccc3F)n2)n1 = NO
• Cc1cccnc1-c1n[nH]c(-c2ccc(C(C)C)cc2)n1 = YES
• COc1ccc(-c2nc(-c3ncccc3C)n[nH]2)c(O)c1 = NO
• O=[N+]([O-])c1ccc(-c2nc(-c3nccc4ccccc34)no2)c(Cl)c1 = NO
• CCOc1ccc(-c2nc(-c3ncccc3-c3ccccc3)no2)c(O)c1 = NO
• COc1cccnc1-c1noc(-c2cc(Br)ccc2O)n1 = YES
• Cc1cccnc1-c1noc(-c2cccc(NC(=O)OC(C)(C)C)c2O)n1 = YES
• COc1ccc(-c2nc(-c3ccc(NC(C)=O)cn3)no2)c(O)c1 = NO
• Fc1ccccc1-c1nnc(-c2ccccc2C(F)(F)F)o1 = NO
• Cc1ccccc1-c1nnc(-c2c(Cl)cccc2Cl)o1 = NO
• Oc1cc(OCc2ccccc2)ccc1-c1nc(-c2nccc3ccccc23)n[nH]1 = NO
• COc1cccc(-c2nc(-c3ccccn3)n[nH]2)c1 = NO
• Fc1ccccc1-c1nnc(-c2ncccc2C(F)(F)F)o1 = NO
• CCOc1cccc(-c2nc(-c3ncccc3C)no2)c1O = NO
• COc1cccc(-c2nc(-c3ncccc3C)n[nH]2)c1O = NO
• c1ccc2c(-c3nc(-c4nccc5ccccc45)n[nH]3)cccc2c1 = NO
• Cc1cccc(-c2n[nH]c(-c3ccc(OCc4ccccc4)cc3O)n2)n1 = NO
• COc1ccc(O)c(-c2nc(-c3ccc(NC(=O)OC(C)(C)C)cn3)no2)c1 = YES
• COc1ccc(-c2nc(-c3ccccn3)n[nH]2)c(O)c1 = NO
• Oc1ccc(O)c(-c2nc(-c3ccc(C(F)(F)F)cn3)no2)c1 = YES
• Cc1ccc(O)c(-c2nc(-c3ccoc3)no2)c1 = NO
• Oc1ccc(OC(F)(F)F)cc1-c1nc(-c2ccc(C(F)(F)F)cn2)no1 = YES
